EXPERIMENTAL_TARGET: Proteasome Macropain subunit MB1 (Homo sapiens)
ASSAY_TEXT: Inhibition of 20S proteasome beta5 subunit in human Jurkat cell lysate using Suc-LLVY-AMC as substrate pretreated for 30 mins followed by substrate addition and measured after 60 mins by fluorescence assay
Doc: threshold 8 nM (exclusive). Items with IC50 beneath it return condition met; others return condition not met.

The examples below pair each entry with its known result.
CC[C@H](C)[C@@H]1C(=O)O[C@H]1C(=O)N[C@H](C(=O)N[C@H](C(=O)OCC(C)C)C(C)C)C(C)C    condition not met
CC[C@H](C)[C@@H]1C(=O)O[C@H]1C(=O)N[C@H](C(=O)N[C@H](C(=O)OCc1ccccc1)C(C)(C)C)C(C)(C)C    condition not met
CC[C@H](C)[C@@H]1C(=O)O[C@H]1C(=O)N[C@H](C(=O)N[C@@H](CC(C)C)C(=O)OCc1ccccc1)C(C)C    condition met
C=CCCOC(=O)[C@@H](NC(=O)[C@@H](NC(=O)[C@@H]1OC(=O)[C@H]1[C@@H](C)CC)C(C)C)C(C)C    condition met
CC[C@H](C)[C@@H]1C(=O)O[C@H]1C(=O)N[C@H](C(=O)N[C@H](C(=O)OCC1CCCCC1)C(C)C)C(C)C    condition not met
CC(C)[C@H](NC(=O)[C@@H]1OC(=O)[C@H]1C1CCC1)C(=O)N[C@H](C(=O)OCc1ccccc1)C(C)C    condition not met
CC(C)C[C@@H]1C(=O)O[C@H]1C(=O)N[C@H](C(=O)N[C@H](C(=O)OCc1ccccc1)C(C)C)C(C)C    condition not met
CC[C@H](C)[C@@H]1C(=O)O[C@H]1C(=O)N[C@H](C(=O)N[C@H](C(=O)OCc1ccccc1)C(C)C)C(C)(C)C    condition not met

*Q* Decide: IC50 of CC(C)[C@H](NC(=O)[C@@H]1OC(=O)[C@H]1C1CCCC1)C(=O)N[C@H](C(=O)OCc1ccccc1)C(C)C strictly below 8 nM?
*A* condition not met

*Q* Decide: IC50 of CC(C)[C@H](NC(=O)[C@@H]1OC(=O)[C@H]1C1CC1)C(=O)N[C@H](C(=O)OCc1ccccc1)C(C)C strictly below 8 nM?
*A* condition met

*Q* Decide: IC50 of CC[C@H](C)[C@@H]1C(=O)O[C@H]1C(=O)N[C@H](C(=O)N[C@H](C(=O)NCc1ccccc1)C(C)C)C(C)C strictly below 8 nM?
*A* condition met

*Q* Decide: IC50 of CC[C@H](C)[C@@H]1C(=O)O[C@H]1C(=O)N[C@H](C(=O)N[C@H](C(=O)OC)C(C)C)C(C)C strictly below 8 nM?
*A* condition not met

====

EXPERIMENTAL_TARGET: Proteasome Macropain subunit MB1 (Homo sapiens) (UniProt P28074)
Sequence (P28074 whole entry): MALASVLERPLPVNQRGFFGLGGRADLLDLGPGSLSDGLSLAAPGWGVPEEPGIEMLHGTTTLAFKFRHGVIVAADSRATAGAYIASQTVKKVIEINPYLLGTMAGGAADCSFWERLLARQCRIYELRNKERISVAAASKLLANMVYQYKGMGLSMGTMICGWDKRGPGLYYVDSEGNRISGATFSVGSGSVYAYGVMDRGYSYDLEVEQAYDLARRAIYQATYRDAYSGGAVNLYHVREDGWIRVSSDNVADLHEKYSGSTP
ASSAY_TEXT: Inhibition of 20S proteasome beta5 subunit in human MCF7 cells using Suc-LLVY-AMC as substrate pretreated for 1 hr followed by compound washout and cell lysis prior to substrate addition measured after 1 hr by fluorescence assay
Type: cell-based
The source made the active and inactive calls. The rule behind the calls is not given here.
MEASUREMENT_TYPE: inhibition

CC(C)[C@H](NC(=O)[C@@H]1OC(=O)[C@H]1C(C)C)C(=O)N[C@H](C(=O)OCc1ccccc1)C(C)C    Active
CC(C)C[C@@H]1C(=O)O[C@H]1C(=O)N[C@H](C(=O)N[C@H](C(=O)OCc1ccccc1)C(C)C)C(C)C    inactive
CC[C@H](C)[C@@H]1C(=O)O[C@H]1C(=O)NCC(=O)N[C@H](C(=O)OCc1ccccc1)C(C)C    Active
CC(C)[C@H](NC(=O)[C@@H]1OC(=O)[C@H]1C1CCC1)C(=O)N[C@H](C(=O)OCc1ccccc1)C(C)C    inactive
CC[C@H](C)[C@@H]1C(=O)O[C@H]1C(=O)N[C@H](C(=O)N[C@@H](CC(C)C)C(=O)OCc1ccccc1)C(C)C    Active

*Q* Dear colleague, I am looking for the recorded inhibition of the following compound: CC[C@H](C)[C@@H]1C(=O)O[C@H]1C(=O)N[C@H](C(=O)N[C@H](C(=O)OCc1ccccc1)C(C)C)C(C)(C)C
*A* Active

*Q* Dear colleague, I am looking for the recorded inhibition of the following compound: CC(C)[C@H](NC(=O)[C@@H]1OC(=O)[C@H]1C1CCCC1)C(=O)N[C@H](C(=O)OCc1ccccc1)C(C)C
*A* inactive
